This section presents compounds with their documented GI50 values.
# Tested on: MOLT-4
# method.summary: NCI tumour cell line growth inhibition, 48 h
The source made the active and inactive calls. Cut-off read from the data, not from the text of the source: active = GI50 up to about 1.1 µM and inactive = higher.

# count of solved cases: 4
| compound | endpoint.result |
| --- | --- |
| CC(C)(C)OC(=O)Cn1ncn(NC(=O)Cc2ccccc2)c1=S | > 10 µM (inactive) |
| Cc1ccc(-c2cc(-c3ccccc3)c(C#N)c(=O)n2C2OC(CO)C(O)C(O)C2O)cc1 (stereo unspecified) | 21.1 µM (inactive) |
| COc1ccc2[nH]c3c4c(cc(-c5ccccc5)c3c2c1)C(=O)N(c1ccccc1)C4=O | 19.5 µM (inactive) |
| CC[n+]1[b-](C(C)(C)C)n(/N=C/C(C)(C)C)[b-](C(C)(C)C)[n+]1CC | > 100 µM (inactive) |

Looking for the measured GI50 of O=C(O)CNc1ccc2c(c1)Cc1cc(Br)ccc1-2 , can you help? 0.746 µM (active)

Please answer likewise for CN1CCN(c2ccc(-n3cc(C(=O)O)c(=O)c4cc(F)c(N5CCN(C)CC5)cc43)nc2)CC1 > 100 µM (inactive)

* * *

# Test system: HL-60
# method.summary: NCI tumour cell line growth inhibition, 48 h
Activity calls are given as the source filed them. Cut-off read from the data, not from the text of the source: active = GI50 up to about 1.1 µM and inactive = higher.
observation.type: GI50

# count of solved cases: 4
| compound | observation.type | endpoint.result |
| --- | --- | --- |
| O=[N+]([O-])c1cc(/C=N/C23CC4CC(CC(C4)C2)C3)ccc1Cl | GI50 | 3.03 µM (inactive) |
| O=C1OCC2C1C1c3ccccc3C(O)c3ccccc3C21 (stereo not given) | GI50 | > 100 µM (inactive) |
| COC(=O)[C@]12CCC(C)(C)C[C@H]1C1=CC[C@@H]3[C@@]4(C)CC[C@H](OC5OC(CO)C(O)C(O)C5OC5OC(CO)C(O)C(O)C5O)C(C)(C)[C@@H]4CC[C@@]3(C)[C@]1(C)CC2 (stereo not given in full) | GI50 | 4.93 µM (inactive) |
| Cc1ccc2c(c1)nc1n2C(N)=Nc2ccccc2S1 | GI50 | 2.67 µM (inactive) |

Then this compound:
Looking for the measured GI50 of O=C(/C=C/c1ccc([N+](=O)[O-])o1)N1CCN(Cc2ccccc2)CC1 , can you help? 2.56 µM (inactive)

* * *

This section presents compounds with their documented GI50 values.
# Tested on: SF-268
# method.summary: NCI tumour cell line growth inhibition, 48 h
The source made the active and inactive calls. Rule as the data show it: active = GI50 up to about 1.1 µM and inactive = higher.

# count of solved cases: 5
| compound | test.target | GI50 |
| --- | --- | --- |
| C/C(=N\N)C(CN(C)C)C(c1ccccc1)c1c(O)c2ccccc2oc1=O (stereo unspecified) | SF-268 | > 100 µM (inactive) |
| N#C[C@](CO)(NC(=O)OCc1ccccc1)C(F)F | SF-268 | > 100 µM (inactive) |
| COc1ccc2sc(-n3nc4ccccc4c3Nc3nc4ccc(OC)cc4s3)nc2c1 | SF-268 | 5.01 µM (inactive) |
| O=C(O)c1cc2c(cc1CC(Cc1ccc3c(c1)CCCC3)C(=O)O)CCCC2 (stereo unspecified) | SF-268 | 39.4 µM (inactive) |
| COc1ccc(/C=C2\OC(=O)C(Cl)=C2c2ccc(OC)c(Cl)c2)cc1 | SF-268 | 17.3 µM (inactive) |

Looking for the measured GI50 of COC(=O)C1=C(C(=O)OC)C2(OC(C)=O)c3ccccc3-c3ccccc3C12 (stereo unspecified) , can you help? 7.62 µM (inactive)
